- assay name: Blood and brain concentrations (rats) after oral gavage
- Type: in vivo, rat
- experimental context: rat brain, 10 mg/kg po, 1 hr, relative to MCD-386
experimental readout: Brain Cmax (10 mg/kg po) 1 hr MCD-386 = 1.00

>>> df
                                   compound  observed_value
0  Cl.[2H]C([2H])(C)c1noc(C2CN=CNC2)n1 (stereo not shown)            0.82
1  Cl.[2H]C([2H])([2H])C([2H])([2H])c1noc(C2CN=CNC2)n1 (stereo not shown)            0.61
2   CCc1noc(C2CN=CNC2)n1 (stereo not shown)            1.00

query: Which measured Brain Cmax (10 mg/kg po) 1 hr MCD-386 = 1.00 value corresponds to [2H]C([2H])([2H])c1noc(C2CCCNC2)n1 (stereo not shown) ?
result: 2.16

* * *

So I've got a bunch of compounds here, and I need their PAMPA units values.
- assay name: PAMPA test
One number for each entry.

See these solved cases before continuing.
>>> df
                                   compound  experimental_readout  observed_value
0   CCc1noc(C2CN=CNC2)n1 (stereo not shown)           PAMPA units            0.05
1  Cc1noc(C2CN3CCC2CC3)n1 (stereo not shown) [Compound 37, reference compound]           PAMPA units            3.02
2  Cc1noc(C2=CCCN(C)C2)n1 [Compound 36, reference compound]           PAMPA units           12.75

Shifting focus to the compound that follows.
query: Quick check: PAMPA units of Cc1noc(C2(F)CCCNC2)n1 (stereo not shown) ?
result: 16.3

* * *

- system: human muscarinic M3 receptors (Homo sapiens, UniProt P20309)
- Construct: host or cells: A9L cells
- Sequence (P20309 whole entry): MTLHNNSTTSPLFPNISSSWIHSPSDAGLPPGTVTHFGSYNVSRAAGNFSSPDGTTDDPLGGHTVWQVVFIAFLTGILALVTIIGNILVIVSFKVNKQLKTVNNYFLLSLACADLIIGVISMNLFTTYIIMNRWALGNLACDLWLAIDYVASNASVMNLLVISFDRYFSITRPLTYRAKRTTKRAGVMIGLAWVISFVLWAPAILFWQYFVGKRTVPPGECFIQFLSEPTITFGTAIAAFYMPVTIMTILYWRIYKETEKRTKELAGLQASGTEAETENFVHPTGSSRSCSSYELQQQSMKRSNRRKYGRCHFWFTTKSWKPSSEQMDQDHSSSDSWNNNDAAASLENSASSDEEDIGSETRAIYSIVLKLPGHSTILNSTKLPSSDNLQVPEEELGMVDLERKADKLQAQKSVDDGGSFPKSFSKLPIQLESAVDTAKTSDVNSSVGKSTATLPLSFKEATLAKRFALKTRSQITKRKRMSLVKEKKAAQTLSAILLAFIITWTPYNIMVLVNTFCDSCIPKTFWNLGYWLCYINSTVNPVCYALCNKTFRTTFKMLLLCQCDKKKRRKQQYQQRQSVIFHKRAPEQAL
- assay name: Stimulation of inositol phosphate production in A9L cells, human M3 (IPOne TR-FRET)
- Type: cell-based
- experimental context: percentage of maximal stimulation by carbachol
experimental readout: huM3/A9L Smax (%)
Give bare numbers, in %.

Before answering, review these 2 worked examples.
In [3]: df
Out[3]:
                                   molecule  experimental_readout  observed_value
0  Cc1noc([C@H]2CCCN[C@@H]2C)n1 [Compound 24]         huM3/A9L Smax              32
1  Cc1noc([C@H]2CCCN[C@@H]2C)n1 [Compound 21]         huM3/A9L Smax              14

Quick one: give me huM3/A9L Smax for each item below, same order please.
1. Cc1noc([C@H]2CCCN[C@@H]2C)n1 [Compound 23]
2. Cc1noc([C@H]2CCCN[C@@H]2C)n1 [Compound 19]
3. Cc1noc([C@H]2CCCN[C@@H]2C)n1 [Compound 22]

result:
1. 19
2. 34
3. 15

* * *

Kindly supply the reported huM1/A9L Smax values for the records listed here.
- system: human muscarinic M1 receptors (Homo sapiens, UniProt P11229)
- Construct: host or cells: A9L cells
- Sequence (P11229 whole entry): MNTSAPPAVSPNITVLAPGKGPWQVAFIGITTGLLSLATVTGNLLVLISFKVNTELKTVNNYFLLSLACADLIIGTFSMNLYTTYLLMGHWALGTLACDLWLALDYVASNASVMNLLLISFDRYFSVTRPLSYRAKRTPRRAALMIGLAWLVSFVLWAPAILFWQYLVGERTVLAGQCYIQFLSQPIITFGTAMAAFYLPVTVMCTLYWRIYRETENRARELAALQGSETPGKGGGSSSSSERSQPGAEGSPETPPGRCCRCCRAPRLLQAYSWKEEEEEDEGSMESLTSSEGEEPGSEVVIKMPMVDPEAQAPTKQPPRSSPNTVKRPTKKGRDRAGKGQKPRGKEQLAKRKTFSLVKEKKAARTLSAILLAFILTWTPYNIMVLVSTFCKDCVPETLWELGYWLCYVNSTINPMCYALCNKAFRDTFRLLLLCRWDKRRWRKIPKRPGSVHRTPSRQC
- assay name: Stimulation of inositol phosphate production in A9L cells, human M1 (IPOne TR-FRET)
- Assay type: cell-based
- experimental context: percentage of maximal stimulation by carbachol
Numbers only, in %.

The following compounds each have a reported value; give each one's huM1/A9L Smax.
1. Cc1noc([C@H]2CCCN[C@@H]2C)n1 [Compound 24]
2. Cc1noc([C@H]2CCCN[C@@H]2C)n1 [Compound 19]
3. Cc1noc([C@H]2CCCN[C@@H]2C)n1 [Compound 23]
4. Cc1noc([C@H]2CCCN[C@@H]2C)n1 [Compound 21]

result:
1. 41
2. 15
3. 23
4. 18

Please state, for each entry, its recorded huM1/A9L Smax.
1. Cc1noc([C@H]2CCCN[C@@H]2C)n1 [Compound 20]
2. Cc1noc([C@H]2CCCN[C@@H]2C)n1 [Compound 22]

result:
1: 9; 2: 7
